Recorded values, source patent US8435978B2.

Molecular target: human B1R receptor (Homo sapiens)
Construct: host or cells: CHO K1 cells (Chinese hamster ovary), stably transfected
Sequence (P46663 1-353): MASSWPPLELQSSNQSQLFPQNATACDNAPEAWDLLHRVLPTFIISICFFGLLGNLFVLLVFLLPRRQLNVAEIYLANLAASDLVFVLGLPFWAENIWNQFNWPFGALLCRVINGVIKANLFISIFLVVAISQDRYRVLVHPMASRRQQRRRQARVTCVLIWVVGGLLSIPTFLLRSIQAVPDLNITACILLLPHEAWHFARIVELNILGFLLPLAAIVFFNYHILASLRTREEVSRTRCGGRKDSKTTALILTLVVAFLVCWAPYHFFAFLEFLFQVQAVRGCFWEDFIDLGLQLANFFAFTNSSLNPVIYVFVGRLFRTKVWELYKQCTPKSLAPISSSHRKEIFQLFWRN
Assay: Functional study on the bradykinin receptor 1 (B1R), FLIPR Ca2+ assay, hB1R cells
Assay type: cell-based
Details: CHO-K1, test substance 10 μM, agonist Lys-Des-Arg9-bradykinin 0.5 nM, % inhibition compared with the maximum achievable inhibition, read-out: B1R Antagonism, human [10 μM] % Inhibition
Where a name gives a salt, the structure may show the parent alone.
Would you kindly list inhibition at 10 µM for each of these compounds?
Give bare numbers, in %.

Here's what some known entries look like.
>  <COMPOUND>
COc1cc(C)c(S(=O)(=O)N2CCCC2COCC(=O)N2CCN(CCn3c(C)ccc3C)CC2)c(C)c1 (stereo not drawn) [Example 269]

>  <TARGET_SYSTEM>
human B1R receptor (Homo sapiens)

>  <inhibition at 10 µM, %>
104

$$$$
>  <COMPOUND>
CN1CCC(CN2CCN(C(=O)COC[C@@H]3Cc4ccccc4CN3S(=O)(=O)c3ccc(Cl)cc3Cl)CC2)CC1 [Example 184]

>  <TARGET_SYSTEM>
human B1R receptor (Homo sapiens)

>  <inhibition at 10 µM, %>
105

$$$$
>  <COMPOUND>
Cc1ccc(S(=O)(=O)N2CCCCC2COCC(=O)N2CCN(C3CCN(C)CC3)CC2)c2ccccc12 (stereo not drawn) [Example 155, dihydrochloride]

>  <TARGET_SYSTEM>
human B1R receptor (Homo sapiens)

>  <inhibition at 10 µM, %>
107

$$$$

Parameter requested: inhibition at 10 µM. Apply to each item below.
1. CN1CCC(N2CCN(C(=O)COCC3CCCCN3S(=O)(=O)c3ccc(C(F)(F)F)cc3Cl)CC2)CC1 (stereo not drawn) [Example 138]
2. COc1cc(C)c(S(=O)(=O)N2CCCCC2COCC(=O)N(CCN(C)C)Cc2ccccc2)c(C)c1 (stereo not drawn) [Example 361]
3. Cc1cc(C)c(S(=O)(=O)N2CCCCC2COCC(=O)N2CCC(N3CCCC3)CC2)c(C)c1 (stereo not drawn) [Example 19]
4. COc1cc(C)c(S(=O)(=O)N2CCCCC2COCC(=O)N2CCN(c3ccc(C)c(C)c3)CC2)c(C)c1 (stereo not drawn) [Example 512]
5. COc1cc(C)c(S(=O)(=O)N2CCCCC2COCC(=O)N2CCN(c3ncc(C(F)(F)F)cc3Cl)CC2)c(C)c1 (stereo not drawn) [Example 376]

Outgoing:
1. 104
2. 93.4
3. 95
4. 93
5. 67.1

Each compound below has a recorded value; state its inhibition at 10 µM.
1. CN1CCN(Cc2ccc(CNC(=O)COCC3CCCCN3S(=O)(=O)c3c(Cl)cc(Cl)cc3Cl)cc2)CC1 (stereo not drawn) [Example 15]
2. COc1cc(C)c(S(=O)(=O)N2CCCCC2COCC(=O)N(C)CCN2CCCCC2)c(C)c1 (stereo not drawn) [Example 532]
3. COc1cc(C)c(S(=O)(=O)N2Cc3ccccc3CC2COCC(=O)N2CCC(CCN3CCCCC3)CC2)c(C)c1C (stereo not drawn) [Example 276]
4. COc1cc(C)c(S(=O)(=O)N2c3ccccc3CCC2COCC(=O)N2CCN(C3CCN(C)CC3)CC2)c(C)c1 (stereo not drawn) [Example 202]
5. COc1cc(C)c(S(=O)(=O)N2CCCCC2COCC(=O)NCCCN2C(C)CCCC2C)c(C)c1 (stereo not drawn) [Example 260]
6. COc1cccc(N2CCN(C(=O)COCC3CCCCN3S(=O)(=O)c3c(C)cc(OC)cc3C)CC2)c1 (stereo not drawn) [Example 288]
7. COc1cc(C)c(S(=O)(=O)N2CCCC2COCC(=O)N2CCN(c3ccc(F)cc3)CC2)c(C)c1 (stereo not drawn) [Example 307]

Outgoing:
[96, 96.4, 98.9, 104, 102, 102, 105]
